experimental-endpoint: melting point

{"columns": ["smi", "melting point"],
 "data": [
  ["Cc1nc(N)c2nc(C)n(CCOc3ccccc3)c2c1C", "176 to 177 °C"],
  ["CCCCCCCCCCCCCCCCNC(=O)c1cccnc1", "85 to 87 °C"]
]}

Exercise: Name the recorded melting point of the item C#CCOc1cc(C(=O)O)n(-c2ncc(Cl)cc2Cl)n1 in your answer.
Solution: 151 to 157 °C

---

// values below are reported melting point

Please review the following examples before continuing.
{"columns": ["compound", "melting point"],
 "data": [
  ["Cc1ccc(S(N)(=O)=O)cn1", "151 to 155 °C"],
  ["CNc1nc(-c2cccc(-c3ccc(C)c(C)c3)c2)c2cc(OC)c(OC)cc2n1", "149 to 151 °C"],
  ["C1=C(c2ccccc2)CSS1", "122 to 124 °C"],
  ["O=C1c2ccccc2C(=O)N1OC1CCCC1", "81.2 to 82.5 °C"],
  ["O=C1NC(=S)SC1=Cc1ccc(C(F)(F)F)o1", "174 °C"]
]}

Exercise: Name the recorded melting point of the item CCOC(=O)C=Cc1ccc(OC2CCCCO2)cc1 (stereo unspecified) in your answer.
Solution: 52 to 53 °C

Exercise: Name the recorded melting point of the item CC1CCNC(=C2C(=O)CC(C(C)C)CC2=O)N1 (stereo unspecified) in your answer.
Solution: 71 to 83 °C

Exercise: Name the recorded melting point of the item CC(NC1=Nc2ccccc2C(=O)N(C)C1)c1ccccc1 (stereo unspecified) in your answer.
Solution: 150 to 151 °C

---

experimental-endpoint: melting point

Please review the following examples before continuing.
{"columns": ["molecule", "observed-result"],
 "data": [
  ["O=C(N[C@H](Cc1ccc(C(F)(F)F)cc1)[C@@H](O)c1ccc(F)cc1)c1ccc(F)cc1 (racemic)", "202 to 203 °C"],
  ["CS(=O)(=O)N1CCCn2c(nc3c(N)nc4cc(-c5cccnc5)ccc4c32)C1", "302 °C"],
  ["N#CC1(CCNC(=O)C(Cl)Cl)CCCCC1", "109 to 114 °C"]
]}

Exercise: Name the recorded melting point of the item COC(=O)c1cccc(NC(=O)C(C)CSC(C)=O)n1 (stereo not given) in your answer.
Solution: 75 to 77 °C

Exercise: Name the recorded melting point of the item CCOC(=O)C(=CNc1ccc(F)c(F)c1OCC(C)OS(=O)(=O)c1ccc(C)cc1)C(=O)OCC (stereo not given) in your answer.
Solution: 61 to 62 °C

Exercise: Name the recorded melting point of the item N#CCC(=O)NCc1ccccc1Cl in your answer.
Solution: 102 to 104 °C

Exercise: Name the recorded melting point of the item C1COCCOCCOCCNCCOCCOCCOCCN1 in your answer.
Solution: 15 °C

Exercise: Name the recorded melting point of the item CCOC(=O)C(C)(C)n1c(=O)[nH]c2ccc(C)cc2c1=O in your answer.
Solution: 156 to 157 °C

Exercise: Name the recorded melting point of the item CC(=O)Nc1ccc(F)cc1C in your answer.
Solution: 131 to 132 °C

Exercise: Name the recorded melting point of the item O=C1CCC(N2Cc3c(OCc4ccc(CN5CCCC5C(F)(F)F)cc4)cccc3C2=O)C(=O)N1 (stereo not given) in your answer.
Solution: 178 to 180 °C

---

// values below are reported melting point

Please review the following examples before continuing.
{"columns": ["compound", "observed-result"],
 "data": [
  ["Nc1cc(Br)c(F)c(Cl)c1F", "86 to 88 °C"],
  ["COc1ccccc1NC(=O)Nc1nc(Oc2ccc3ccccc3c2)nc(N(CCC(=O)O)Cc2cccc(C)c2)n1", "105 to 125 °C"],
  ["N#Cc1ccc(Nc2nc(N)nc(Cc3c(Cl)ccc4[nH]ccc34)n2)cc1", "267 to 268 °C"],
  ["COC(=O)c1cc(C(=O)N2CCC(CO)CC2)c2cc(Cc3ccc(F)cc3)cnc2c1O", "161 to 162 °C"]
]}

Exercise: Name the recorded melting point of the item CC(=O)N1CCCC1n1nccc1-c1ccc(Oc2ccc(F)cc2)cc1 (centres undefined) in your answer.
Solution: 90 to 95 °C

Exercise: Name the recorded melting point of the item Nc1nc2ccc(S(=O)(=O)n3c(CCC(=O)O)cc4cc(Cl)ccc43)cc2s1 in your answer.
Solution: 250 to 255 °C

Exercise: Name the recorded melting point of the item CCCC(=O)NC(C#N)C(=O)OCC (centres undefined) in your answer.
Solution: 110 °C

Exercise: Name the recorded melting point of the item CCC(=O)OCC(=O)C12OCOC1CC1C3CCC4=CC(=O)C=CC4(C)C3C(O)CC12C (centres undefined) in your answer.
Solution: 184 to 185 °C

Exercise: Name the recorded melting point of the item Cc1cc(-c2cc(C(F)(F)F)nc(-n3cnc(-c4ccc(S(N)(=O)=O)cc4)c3)n2)ccc1C(F)(F)F in your answer.
Solution: 287 °C

Exercise: Name the recorded melting point of the item CC(=O)Oc1cccc2c(-c3cccs3)c3cccc(OC(C)=O)c3c(OC(C)=O)c12 in your answer.
Solution: 260 °C

Exercise: Name the recorded melting point of the item CC(C)c1ccccc1-c1nc(-c2ccccc2)n[nH]1 in your answer.
Solution: 165 to 167 °C

Exercise: Name the recorded melting point of the item N=C(N)SCc1c(Cl)ccc2c1oc1c(CSC(=N)N)c(Cl)ccc12 in your answer.
Solution: > 220 °C

Exercise: Name the recorded melting point of the item OC1c2ccc(Cl)cc2OCc2cccnc21 (centres undefined) in your answer.
Solution: 105 to 108 °C

Exercise: Name the recorded melting point of the item CN(C)Cc1c(-c2cc(C(C)(C)C)c(O)c(C(C)(C)C)c2)nc2n1CCS2 in your answer.
Solution: 188 to 191 °C

---

// values below are reported melting point

Please review the following examples before continuing.
{"columns": ["compound", "observed-result"],
 "data": [
  ["Cn1nnc2sc([N+](=O)[O-])cc2c1=O", "164 to 168 °C"],
  ["CNC(=O)ON=C(C)SC(C)C(N)=O (configuration not stated)", "161 to 163 °C"],
  ["CCCOc1cc(C)c(Cl)c2c(=O)c3ccccc3sc12", "116 to 118 °C"],
  ["N#Cc1cc(Cl)ccc1Oc1cc(N2CCOCC2)c(F)cc1O", "149 to 151 °C"]
]}

Exercise: Name the recorded melting point of the item C=C1CC(COc2cccc3cccnc23)(c2ccc(Cl)cc2)OC1=O (configuration not stated) in your answer.
Solution: 107 to 108 °C

Exercise: Name the recorded melting point of the item COc1ccc2sc(C(N)=O)c(SCC(=O)O)c2c1 in your answer.
Solution: 126 to 127 °C

Exercise: Name the recorded melting point of the item Cn1ccc(-c2nnc(Cc3ccc(F)cc3)o2)c(O)c1=O in your answer.
Solution: 216 to 218 °C

Exercise: Name the recorded melting point of the item CCCC(=O)c1cc2c(c(Cl)c1Cl)OC(C(=O)O)C2 (configuration not stated) in your answer.
Solution: 124 to 125 °C

Exercise: Name the recorded melting point of the item COc1cccc2c(C3CCN(C(=O)OC(C)(C)C)CC3)noc12 in your answer.
Solution: 130 to 132 °C

Exercise: Name the recorded melting point of the item CC(C)n1nc(-c2nc(O)cnc2-c2ccccc2)ccc1=O in your answer.
Solution: 198 to 200 °C

Exercise: Name the recorded melting point of the item COc1cc(Br)ccc1-c1ccc(Br)cc1[N+](=O)[O-] in your answer.
Solution: 127 to 129 °C

Exercise: Name the recorded melting point of the item C=C(CC(O)C(=O)OCC)CC(NC=O)(C(=O)OCC)C(=O)OCC (configuration not stated) in your answer.
Solution: 68 °C

---

experimental-endpoint: melting point

Please review the following examples before continuing.
{"columns": ["compound", "melting point"],
 "data": [
  ["CC1(C(=O)Cn2cncn2)COCOC1", "95 to 97 °C"],
  ["CNc1nc(-c2ccc(O)c(F)c2)cc2c(OC)cccc12", "185 to 187 °C"],
  ["[O-][N+]1=C(c2ccccc2F)c2cc(Cl)ccc2N=C(C2CCCN2C=NO)C1 (stereo not drawn)", "168 to 172 °C"]
]}

Exercise: Name the recorded melting point of the item O=C1CCN2C(=O)c3cccc(NC(=O)Nc4ccccn4)c3C2C1 (stereo not drawn) in your answer.
Solution: 254 °C

Exercise: Name the recorded melting point of the item CC1(C)C(=O)Nc2cc(C(=O)CBr)ccc21 in your answer.
Solution: 230 to 232 °C

Exercise: Name the recorded melting point of the item Cc1c(NC(=O)c2ccc(OC[C@@H]3CCCO3)cc2)ccc2c1cc(CNCC(C)(C)C)n2C in your answer.
Solution: 179 °C

Exercise: Name the recorded melting point of the item Cc1cc(C#N)cc(CC#N)c1 in your answer.
Solution: 63 to 64 °C

Exercise: Name the recorded melting point of the item O=C(O)C(Cl)(Cl)CCCCCCCCCCCCC(Cl)(Cl)C(=O)O in your answer.
Solution: 114 °C
